Test system: IGROV1 ovarian
Test: NCI tumour cell line growth inhibition, 48 h
quantity: TGI

Bench note, IGROV1 ovarian: entry CCCCCCCCCCCCCCCCOCC(Cl)COP(=O)(O)OP(=O)(O)OCC1OC(n2cnc3c(N)ncnc32)C(O)C1O (stereo unspecified) , its TGI = > 100 µM

Query COc1cc(-n2cc(-c3cc(O)c(C/C=C(\C)CCC=C(C)C)c(O)c3)nn2)cc2c1O[C@]1(C)CC[C@@H](O)C(C)(C)[C@H]1C2 on IGROV1 ovarian; TGI returned: 28.5 µM

Noted TGI for O=C1OI(C#Cc2ccccc2)c2ccccc21 , tested on IGROV1 ovarian: 6.17 µM

The value of TGI recorded for O=c1oc2ccc(Cl)cc2cc1-c1cn2ccsc2n1 when tested on IGROV1 ovarian reads > 100 µM

IGROV1 ovarian data for Cc1cc(=O)oc2cc(OCCn3c(C)nn(-c4ccc(Cl)cc4)c3=O)ccc12 ; its TGI: > 100 µM

###

Tested on: UACC-257 melanoma
Test: NCI tumour cell line growth inhibition, 48 h; in the data active = GI50 below about 0.43 µM; inactive = the rest
Valid outcomes are listed here; reply with one: True = active, False = inactive

compound | assigned_category
C=C(CNCCc1ccc(O)cc1)[C@@H]1CC[C@]2(CO)CC[C@]3(C)[C@H](CC[C@@H]4[C@@]5(C)CCC(N)C(C)(C)[C@@H]5CC[C@]43C)[C@@H]12 (stereo partly drawn) | True
COc1ccc2cc(-c3c(-c4ccncc4)nc(-c4ccc(S(C)=O)cc4C)n3C)ccc2c1 (stereo not drawn) | False
O=C(Nc1ccccc1O)c1ccc(CNC(=O)c2ccsc2Nc2ccnc(C(F)(F)F)c2)cc1 | False

input: I'd appreciate the recorded outcome for O=c1oc2ccc(F)cc2c(=O)n1-c1ccc(Br)cc1F from this test.
output: False

input: Hello, I am checking results. What call was entered for O=C(/C=C/c1cn(-c2ccccc2)nc1-c1ccc([N+](=O)[O-])cc1)c1ccc(Cl)cc1 ?
output: False

input: Returns: the outcome recorded for CC12OC(C(=O)C13CCC3)C1C(=O)c3ccccc3C(=O)C12 (stereo not drawn) in this assay.
output: False

input: Answer briefly: the call reported for COc1ccc(-c2cc(/C=C/C(=O)c3cc(OC)c(OC)c(OC)c3)[nH]n2)cc1OC in this assay.
output: False

input: What did this assay record as the result for c1ccc(CC(NCCNC(Cc2ccccc2)c2ccccc2)c2ccccc2)cc1 (stereo not drawn) ?
output: False

###

The entries below are paired with their reported TGI.
Test system: NCI/ADR-RES ovarian
Experiment: NCI tumour cell line growth inhibition, 48 h

compound | TGI
O=C(c1ccco1)C1CC(c2ccc3ccccc3c2O)=NN1c1ccc([N+](=O)[O-])cc1[N+](=O)[O-] (stereo unspecified) | 75.4 µM
Cc1ccc(/C=C2\CN(C)CC3C2=NC(=S)NC3c2ccc(C)cc2)cc1 (stereo unspecified) | > 100 µM
O=C(O)Cn1ccnc1[N+](=O)[O-] | > 100 µM

Note to self: TGI recorded for Cc1cn([C@H]2[C@@H](CO)C[C@H]2O)c(=O)[nH]c1=O was > 100 µM

GET /value?item= COc1ccc2cc(-c3c(-c4ccncc4)nc(-c4ccc(S(C)=O)cc4C)n3C)ccc2c1 (stereo unspecified) &field=TGI returns > 25 µM

###

Tested on: OVCAR-3 ovarian
Experiment: NCI tumour cell line growth inhibition, 48 h; in the data active means GI50 below about 0.43 µM; inactive means the rest
Form entry, call: pick from active, inactive

Please review the entries below; each comes with its answer.
molecule | assigned_category
O=C(Nc1ccccc1O)c1ccc(CNC(=O)c2ccsc2Nc2ccnc(C(F)(F)F)c2)cc1 | inactive
COc1ccc(NC(=O)c2sc3nc4c(cc3c2N)CCCC4)cc1 | active
COc1cc2cc(Oc3ccc(NC(=O)c4cccc5c4OCCO5)cc3)c(C)nc2cc1OC | inactive
NC(N)=N/N=C/c1c(-c2ccc(Cl)c([N+](=O)[O-])c2)nc2n1CCS2 | inactive
c1ccc(CC(NCCNC(Cc2ccccc2)c2ccccc2)c2ccccc2)cc1 (stereo not drawn) | active

input: What classification did NC(=O)c1cc(I)ccc1NC(=O)COc1ccccc1 end up with in this test?
output: active

input: Name the outcome recorded for COc1ccc2cc(-c3c(-c4ccncc4)nc(-c4ccc(S(C)=O)cc4C)n3C)ccc2c1 (stereo not drawn) in the assay.
output: inactive

input: Just curious, what result did Nc1ccn([C@@H]2C(F)=C(CO)[C@@H](O)[C@H]2O)c(=O)n1 get here?
output: inactive

input: // outcome(item) with item = CCC(=O)c1cc([N+](=O)[O-])c(Br)s1
output: inactive

input: For COc1cc2nnn3c4ncccc4c(N=O)c3c2cc1OC , which call appears in the assay record?
output: inactive

input: Entry CCCn1cnc2c(SCc3ccccc3)nc(N)nc21 : call = ?
output: inactive

input: Tell me the assay call for COc1ccc2[nH]c(-c3ccccc3)cc2c1 please.
output: inactive

###

Test system: SN12C renal
Assay: NCI tumour cell line growth inhibition, 48 h
Here, each record is paired with measured TGI data.
Supply the numeric figure in µM, leaving out any unit text.

molecule | quantity | numeric_readout
CCCNC(=O)CCC(C)[C@H]1CCC2C3C(C[C@H](OC(C)=O)[C@@]21C)[C@@]1(C)CCC2(C[C@H]1C[C@H]3OC(C)=O)OOC1(CCCCC1)OO2 (stereo not given in full) | TGI | 16

Nc1ncc(/C=N/O)c(NCC2(CO)CC(CCc3ccccc3)C2)n1 (stereo not given) yielded TGI of 33

For this molecule ( C=C(CNCCc1ccc(O)cc1)[C@@H]1CC[C@]2(CO)CC[C@]3(C)[C@H](CC[C@@H]4[C@@]5(C)CCC(N)C(C)(C)[C@@H]5CC[C@]43C)[C@@H]12 (stereo not given in full) ), measured TGI is 3.02

Lab note: measured TGI of CC/C(Cl)=N\OC(=O)Nc1ccc(F)cc1F was 11.5

GET /value?item= CC(=O)OCCC(O[Si](c1ccccc1)(c1ccccc1)C(C)(C)C)C(C)(C)O (stereo not given) &field=TGI returns 34.2

###

Test system: MALME-3M melanoma
Test: NCI tumour cell line growth inhibition, 48 h
quantity: TGI

compound | quantity | result
CCOC1=C2NC(Cc3ccc(F)cc3)=NC2C(=O)c2ccccc21 (configuration not stated) | TGI | 55.8 µM
C=C1CC(Cn2cc(Br)c(=O)[nH]c2=O)(c2ccc(-c3ccccc3)cc2)OC1=O (configuration not stated) | TGI | 3.06 µM
CC(C)CCCC(C)[C@H]1CC[C@H]2N=C(Nc3ccccc3)CCC[C@]12C (some centres not stated) | TGI | 6.39 µM

Data point: COc1ccc(C2ONC3=NCCN32)cc1 (configuration not stated) ; TGI = > 100 µM

Sample COc1ccc(-c2c3ccccc3c(-c3ccc(OCCCCCBr)cc3)c3ccccc23)cc1 ; TGI observed: > 100 µM

According to the records, this compound COc1ccc(/C=C/C(=O)C(C)(C)Br)cc1 displays TGI of 32 µM

// sample COc1ccc(C(=O)c2ccc(-n3cc(/C=C/[N+](=O)[O-])c4ccccc43)cc2)cc1 , its TGI was 46.8 µM

So, Cc1ccc2c(c1)CC1(C2=O)[C@H](c2ccccc2)C2C(=O)c3ccc(C)cc3C2[C@H]1c1ccccc1 (some centres not stated) ? Its TGI was > 100 µM

So, O=C(Nc1cc(S(=O)(=O)c2ccc(Cl)cc2)ccc1Cl)c1cc(I)cc(I)c1O ? Its TGI was 48.5 µM

Record summary for COC(=O)C1(F)C(=O)NC(=O)NC1OC (configuration not stated) : reported TGI = > 100 µM

Quick note, TGI for CO[P@]1(=O)O[C@@H](c2ccccc2)[C@H](O)[C@@]1(O)c1ccccc1 landed at > 100 µM

Measured TGI, C/C(=N/O)c1ccc2c(c1)C(=NO)c1cc(/C(C)=N/O)ccc1-2 : 23 µM

Value of TGI reported for the compound COc1ccc(CC2=NCCc3cc(OC)c(OC)cc32)cc1Br is 70.4 µM

###

Entries and their TGI values follow.
System: OVCAR-5 ovarian
Assay: NCI tumour cell line growth inhibition, 48 h

Worked set:
molecule | TGI
CC12OC(C(=O)C13CCC3)C1C(=O)c3ccccc3C(=O)C12 (centres undefined) | > 100 µM
Cc1ccc2c(c1)CC1(C2=O)[C@H](c2ccccc2)C2C(=O)c3ccc(C)cc3C2[C@H]1c1ccccc1 (some centres undefined) | > 100 µM

Summary: O=C(Nc1ccccc1O)c1ccc(CNC(=O)c2ccsc2Nc2ccnc(C(F)(F)F)c2)cc1 , OVCAR-5 ovarian, TGI = 14.7 µM

With OVCAR-5 ovarian as the test system, CC(C)C1CC(CO)(CNc2cc(Cl)nc(N)n2)C1 (centres undefined) showed TGI of > 100 µM

With OVCAR-5 ovarian as the test system, Cc1cc2occ(-c3ccc(Cl)cc3)c2c(=O)o1 showed TGI of > 100 µM

# TGI measured on OVCAR-5 ovarian for item CCCCCCOP(=O)(OCCCCCC)OC(C(=O)OC)C(F)(F)F (centres undefined) = > 100 µM

OVCAR-5 ovarian TGI of Cc1c(C(=O)OCc2ccccc2)[n+](=O)c2cc(F)c(F)cc2n1[O-] is > 100 µM

Measured on OVCAR-5 ovarian, CC(C)(C)[Si](C)(C)OCC1OC(n2cnc3c(N)ncnc32)C(O)C1O (centres undefined) has a documented TGI of > 100 µM

Tested system OVCAR-5 ovarian; TGI recorded for C[N+](C)=c1nc(N2CCOCC2)ss1 was > 100 µM
